target: T1, PD-L1-HIS recombinant protein (human, UniProt Q9NZQ7 19-238, limits assumed); experiment: SPR (Biacore 8K), antibody captured on chip, PD-L1-HIS analyte 2.5-80 nM, 1:1 binding model
T1 construct: not shown: His tag
T1 sequence (Q9NZQ7 19-238 limits assumed): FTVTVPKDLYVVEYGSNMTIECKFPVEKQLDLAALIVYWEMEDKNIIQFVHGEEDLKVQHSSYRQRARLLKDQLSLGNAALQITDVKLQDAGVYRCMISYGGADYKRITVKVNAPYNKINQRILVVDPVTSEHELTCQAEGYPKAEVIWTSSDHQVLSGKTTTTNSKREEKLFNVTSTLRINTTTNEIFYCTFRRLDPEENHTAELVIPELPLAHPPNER
y if koff is below 0.0003 s⁻¹. n if not; exact matches included in n.

Solved cases below.
Chimeric antibody (antibody, V domains shown, also called mPD-L1Ab-Chim) VH: DVQLQESGPDLVKPSQSLSLTCTVTGYSITSGYTWHWIRQFPGNKLEWMGYIHYSGSTKYNPSLKSRFSITRDTSKNQFFLQLNSMTAEDTATYYCARNSLFASWGHGTLVTVSA VL: DIVLTQSPASLAVSLGQRATISCRASESVDTYGDSFMHWFQQKPGQPPKLLIYRASNLESGIPARFSGSGSRTDFTLTINPVEADDVATYYCQQSNEAPYTFGGGTKLEIK | y
AH01950 (antibody, human IgG1, V domains shown, also called mPD-L1Ab-CBM clone AH01950) VH: QVQLQESGPGLVKPSQTLSLTCTVSGYSITSGYTWHWIRQHPGKGLEWIGYIHYSGSTKYNPSLKSRVTISRDTSKNQFSLKLSSVTAADTAVYYCARNSLFASWGQGTLVTVSS VL: DIVLTQSPDSLAVSLGERATINCRASESVDTYGDSFMHWFQQKPGQPPKLLIYRASNLESGVPDRFSGSGSGTDFTLTISSLQAEDVAVYYCQQSNEAPYTFGGGTKLEIK | y
AH01946 (antibody, human IgG1, V domains shown, also called mPD-L1Ab-CBM clone AH01946) VH: QVQLQESGPGLVKPSQTLSLTCTVSGYSITSGYTWHWIRQHPGKGLEWIGYIHYSGSTKYNPSLKSRVTISRDTSKNQFSLKLSSMTAADTAVYYCARNSLFASWGQGTLVTVSS VL: DIVLTQSPDSLAVSLGERATINCRASESVDTYGDSFMHWFQQKPGQPPKLLIYRASNLESGVPDRFSGSGSGTDFTLTISSVQAEDVAVYYCQQSNEAPYTFGGGTKLEIK | y

For AH02029 (antibody, human IgG1, V domains shown, also called mPD-L1Ab-5BM clone AH02029) VH: QVQLQESGPGLVKPSQTLSLTCTVTGYSITSGYTWHWIRQHPGKGLEWIGYIHYSGSTKYNPSLKSRVSISRDTSKNQFSLKLSSVTAADTAVYYCARNSLFASWGQGTLVTVSS VL: DIVLTQSPDSLAVSLGERATINCRASESVDTYGDSFMHWYQQKPGQPPKLLIYRASNLESGVPDRFSGSGSGTDFTLTISSLQAEDVAVYYCQQSNEAPYTFGGGTKLEIK , is the recorded koff below the cut-off of 0.0003 s⁻¹?
n

Please let me know if AH01947 (antibody, human IgG1, V domains shown, also called mPD-L1Ab-CBM clone AH01947) VH: QVQLQESGPGLVKPSQTLSLTCTVSGYSITSGYTWHWIRQHPGKGLEWIGYIHYSGSTKYNPSLKSRVTISVDTSKNQFSLKLSSVTAADTAVYYCARNSLFASWGQGTLVTVSS VL: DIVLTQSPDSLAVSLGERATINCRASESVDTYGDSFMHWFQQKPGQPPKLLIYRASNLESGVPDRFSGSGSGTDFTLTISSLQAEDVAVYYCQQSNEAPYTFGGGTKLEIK shows koff below 0.0003 s⁻¹.
n

Determine whether this binder shows koff lower than 0.0003 s⁻¹ (ties excluded): AH01963 (antibody, human IgG1, V domains shown, also called mPD-L1Ab-CBM clone AH01963) VH: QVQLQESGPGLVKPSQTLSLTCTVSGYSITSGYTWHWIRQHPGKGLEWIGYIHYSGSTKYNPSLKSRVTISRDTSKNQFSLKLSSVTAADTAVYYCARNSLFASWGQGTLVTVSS VL: DIVLTQSPDSLAVSLGERATINCRASESVDTYGDSFMHWYQQKPGQPPKLLIYRASNLESGVPDRFSGSGSGTDFTLTISSVQAEDVAVYYCQQSNEAPYTFGGGTKLEIK
y

Just wondering, is koff of AH02033 (antibody, human IgG1, V domains shown, also called mPD-L1Ab-5BM clone AH02033) VH: QVQLQESGPGLVKPSQTLSLTCTVTGYSITSGYTWHWIRQHPGKGLEWMGYIHYSGSTKYNPSLKSRFTISRDTSKNQFSLKLSSVTAADTAVYYCARNSLFASWGQGTLVTVSS VL: DIVLTQSPDSLAVSLGERATINCRASESVDTYGDSFMHWFQQKPGQPPKLLIYRASNLESGIPDRFSGSGSGTDFTLTISSLQAEDVAVYYCQQSNEAPYTFGGGTKLEIK below 0.0003 s⁻¹?
y

In the record for AH01964 (antibody, human IgG1, V domains shown, also called mPD-L1Ab-CBM clone AH01964) VH: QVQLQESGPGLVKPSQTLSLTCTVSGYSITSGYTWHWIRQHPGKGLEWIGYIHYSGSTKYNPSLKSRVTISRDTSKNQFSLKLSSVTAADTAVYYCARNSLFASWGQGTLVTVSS VL: DIVMTQSPDSLAVSLGERATINCRASESVDTYGDSFMHWYQQKPGQPPKLLIYRASNLESGVPDRFSGSGSGTDFTLTISSLQAEDVAVYYCQQSNEAPYTFGGGTKL , is koff less than 0.0003 s⁻¹?
n

Dear colleague, could you confirm whether koff of AH02030 (antibody, human IgG1, V domains shown, also called mPD-L1Ab-5BM clone AH02030) VH: QVQLQESGPGLVKPSQTLSLTCTVTGYSITSGYTWHWIRQHPGKGLEWIGYIHYSGSTKYNPSLKSRFTITRDTSKNQFSLKLSSVTAADTAVYYCARNSLFASWGQGTLVTVSS VL: DIVLTQSPDSLAVSLGERATINCRASESVDTYGDSFMHWYQQKPGQPPKLLIYRASNLESGVPDRFSGSGSRTDFTLTISSLQAEDVAVYYCQQSNEAPYTFGGGTKLEIK falls below 0.0003 s⁻¹? Thanks.
y
